Phage binding ELISA signal, Anti-PSMA Fab in presence of PSMA values for the binders below.
Target: T1, PSMA Fab
T1 construct: also called Anti-PSMA Fab; 006 PSMA Fab
Experiment: clonal phage ELISA on captured PSMA Fab pre-incubated with PSMA antigen as competitor;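 note: crude clonal phage supernatants added to wells without washing away the PSMA competitor, bound phage detected by HRP-conjugated anti-M13 antibody, reference wells received blocking buffer only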
Where no end group is shown, it is not given here.
Note: the reply should be a number with no unit written.

# Phage binding ELISA signal, Anti-PSMA Fab in presence of PSMA of DIHLCTPNWMCSGF (cysteine pairing not given here; also: fused to phage pIII, fusion site not given here) [Phage-3163] = 0.0738

# Phage binding ELISA signal, Anti-PSMA Fab in presence of PSMA of LALRCEPSWMCLGF (cysteine pairing not given here; also: fused to phage pIII, orientation and linker not given here) [Phage-3160] = 0.112

# Phage binding ELISA signal, Anti-PSMA Fab in presence of PSMA of QMPMCRPAWMCMGF (cysteine pairing not given here; also: fused to phage pIII, orientation and linker not given here) [Phage-3157] = 0.105

# Phage binding ELISA signal, Anti-PSMA Fab in presence of PSMA of NVHYCVPAWMCNGF (cysteine pairing not given here; also: fused to phage pIII, fusion site not given here) [Phage-3165] = 0.163

# Phage binding ELISA signal, Anti-PSMA Fab in presence of PSMA of ETALCRPLWMCDWL (cysteine pairing not given here; also: fused to phage pIII, fusion site not given here) [Phage-3162] = 0.0692

# Phage binding ELISA signal, Anti-PSMA Fab in presence of PSMA of IVPYCMPQWMCSGF (cysteine pairing not given here; also: fused to phage pIII, orientation and linker not given here) [Phage-3158] = 0.107

# Phage binding ELISA signal, Anti-PSMA Fab in presence of PSMA of MDKICSPMWMCLGF (cysteine pairing not given here; also: fused to phage pIII, fusion site not given here) [Phage-3164] = 0.0702

# Phage binding ELISA signal, Anti-PSMA Fab in presence of PSMA of EVKFCKPAWMCTGF (cysteine pairing not given here; also: fused to phage pIII, fusion site not given here) [Phage-3170] = 0.0863

# Phage binding ELISA signal, Anti-PSMA Fab in presence of PSMA of ADWLCRPAWMCEGL (cysteine pairing not given here; also: fused to phage pIII, fusion site not given here) [Phage-3168] = 0.0589

# Phage binding ELISA signal, Anti-PSMA Fab in presence of PSMA of LVRVCTPMWMCQGF (cysteine pairing not given here; also: fused to phage pIII, fusion site not given here) [Phage-3166] = 0.058

# Phage binding ELISA signal, Anti-PSMA Fab in presence of PSMA of TYPKCIPPWMCTGF (cysteine pairing not given here; also: fused to phage pIII, fusion site not given here) [Phage-3167] = 0.115

# Phage binding ELISA signal, Anti-PSMA Fab in presence of PSMA of NHVQCVPNWMCSGF (cysteine pairing not given here; also: fused to phage pIII, fusion site not given here) [Phage-3161] = 0.138

# Phage binding ELISA signal, Anti-PSMA Fab in presence of PSMA of WMAMCKPVWMCEGF (cysteine pairing not given here; also: fused to phage pIII, orientation and linker not given here) [Phage-3159] = 0.163

# Phage binding ELISA signal, Anti-PSMA Fab in presence of PSMA of VEKLCKPEWMCMGF (cysteine pairing not given here; also: fused to phage pIII, fusion site not given here) [Phage-3169] = 0.0909
